Here's a batch of compounds along with measured IC50 for Acetylcholinesterase (Homo sapiens, UniProt P22303).

Below, 5 compounds whose answers are already recorded.
• C[C@@H]1CC[C@]2(C(=O)O)CC[C@]3(C)C(=CC[C@@H]4[C@@]5(C)C[C@@H](OC(=O)CCc6ccccc6)[C@H](O)[C@@](C)(CO)[C@@H]5CC[C@]43C)[C@@H]2[C@]1(C)O = 11.5 µM
• C[C@@H]1CC[C@]2(C(=O)O)CC[C@]3(C)C(=CC[C@@H]4[C@@]5(C)C(C=O)=C[C@@](C)(COC(=O)c6ccc(C(F)(F)F)cc6)[C@@H]5CC[C@]43C)[C@@H]2[C@]1(C)O = > 100 µM
• C[C@@H]1CC[C@]2(C(=O)O)CC[C@]3(C)C(=CC[C@@H]4[C@@]5(C)C(C=O)=C[C@@](C)(COC(=O)CCc6ccccc6)[C@@H]5CC[C@]43C)[C@@H]2[C@]1(C)O = 46.2 µM
• C[C@@H]1CC[C@]2(C(=O)O)CC[C@]3(C)C(=CC[C@@H]4[C@@]5(C)C(C=O)=C[C@@](C)(CO)[C@@H]5CC[C@]43C)[C@@H]2[C@]1(C)O = > 100 µM
• C[C@@H]1CC[C@]2(C(=O)NCc3ccccc3Cl)CC[C@]3(C)C(=CC[C@@H]4[C@@]5(C)C[C@@H](O)[C@H](O)[C@@](C)(CO)[C@@H]5CC[C@]43C)[C@@H]2[C@]1(C)O = 3.7 µM

Quick request: IC50 for each listed item, please.
1. C[C@@H]1CC[C@]2(C(=O)NCc3ccccc3)CC[C@]3(C)C(=CC[C@@H]4[C@@]5(C)C[C@@H](O)[C@H](O)[C@@](C)(CO)[C@@H]5CC[C@]43C)[C@@H]2[C@]1(C)O
2. CCCCCC(=O)OC[C@]1(C)C=C(C=O)[C@@]2(C)[C@H]1CC[C@]1(C)[C@@H]2CC=C2[C@H]3[C@](C(=O)O)(CC[C@@H](C)[C@@]3(C)O)CC[C@]21C
3. COc1ccc(C(=O)O[C@]2(C)[C@H](C)CC[C@]3(C(=O)O)CC[C@]4(C)C(=CC[C@@H]5[C@@]6(C)C(C=O)=C[C@@](C)(CO)[C@@H]6CC[C@]54C)[C@@H]32)cc1
4. C[C@@H]1CC[C@]2(C(=O)NCCc3c[nH]c4ccccc34)CC[C@]3(C)C(=CC[C@@H]4[C@@]5(C)C[C@@H](O)[C@H](O)[C@@](C)(CO)[C@@H]5CC[C@]43C)[C@@H]2[C@]1(C)O
5. C[C@@H]1CC[C@]2(C(=O)O)CC[C@]3(C)C(=CC[C@@H]4[C@@]5(C)C(C=O)=C[C@@](C)(COC(=O)c6ccc(Cl)cc6)[C@@H]5CC[C@]43C)[C@@H]2[C@]1(C)OC(=O)c1ccc(Cl)cc1
6. C[C@@H]1CC[C@]2(C(=O)NC3CCCCC3)CC[C@]3(C)C(=CC[C@@H]4[C@@]5(C)C[C@@H](O)[C@H](O)[C@@](C)(CO)[C@@H]5CC[C@]43C)[C@@H]2[C@]1(C)O
7. C[C@@H]1CC[C@]2(C(=O)NCCc3ccc(Cl)c(Cl)c3)CC[C@]3(C)C(=CC[C@@H]4[C@@]5(C)C[C@@H](O)[C@H](O)[C@@](C)(CO)[C@@H]5CC[C@]43C)[C@@H]2[C@]1(C)O

65.1 µM
> 100 µM
> 100 µM
51.3 µM
> 100 µM
80.4 µM
> 100 µM
